Source listed as patent US12540131B2.

Target: GST tagged truncated human mutant G2019S LRRK2 (Homo sapiens (Human), UniProt Q5S007, G2019S)
Sequence (Q5S007 970-2527 G2019S): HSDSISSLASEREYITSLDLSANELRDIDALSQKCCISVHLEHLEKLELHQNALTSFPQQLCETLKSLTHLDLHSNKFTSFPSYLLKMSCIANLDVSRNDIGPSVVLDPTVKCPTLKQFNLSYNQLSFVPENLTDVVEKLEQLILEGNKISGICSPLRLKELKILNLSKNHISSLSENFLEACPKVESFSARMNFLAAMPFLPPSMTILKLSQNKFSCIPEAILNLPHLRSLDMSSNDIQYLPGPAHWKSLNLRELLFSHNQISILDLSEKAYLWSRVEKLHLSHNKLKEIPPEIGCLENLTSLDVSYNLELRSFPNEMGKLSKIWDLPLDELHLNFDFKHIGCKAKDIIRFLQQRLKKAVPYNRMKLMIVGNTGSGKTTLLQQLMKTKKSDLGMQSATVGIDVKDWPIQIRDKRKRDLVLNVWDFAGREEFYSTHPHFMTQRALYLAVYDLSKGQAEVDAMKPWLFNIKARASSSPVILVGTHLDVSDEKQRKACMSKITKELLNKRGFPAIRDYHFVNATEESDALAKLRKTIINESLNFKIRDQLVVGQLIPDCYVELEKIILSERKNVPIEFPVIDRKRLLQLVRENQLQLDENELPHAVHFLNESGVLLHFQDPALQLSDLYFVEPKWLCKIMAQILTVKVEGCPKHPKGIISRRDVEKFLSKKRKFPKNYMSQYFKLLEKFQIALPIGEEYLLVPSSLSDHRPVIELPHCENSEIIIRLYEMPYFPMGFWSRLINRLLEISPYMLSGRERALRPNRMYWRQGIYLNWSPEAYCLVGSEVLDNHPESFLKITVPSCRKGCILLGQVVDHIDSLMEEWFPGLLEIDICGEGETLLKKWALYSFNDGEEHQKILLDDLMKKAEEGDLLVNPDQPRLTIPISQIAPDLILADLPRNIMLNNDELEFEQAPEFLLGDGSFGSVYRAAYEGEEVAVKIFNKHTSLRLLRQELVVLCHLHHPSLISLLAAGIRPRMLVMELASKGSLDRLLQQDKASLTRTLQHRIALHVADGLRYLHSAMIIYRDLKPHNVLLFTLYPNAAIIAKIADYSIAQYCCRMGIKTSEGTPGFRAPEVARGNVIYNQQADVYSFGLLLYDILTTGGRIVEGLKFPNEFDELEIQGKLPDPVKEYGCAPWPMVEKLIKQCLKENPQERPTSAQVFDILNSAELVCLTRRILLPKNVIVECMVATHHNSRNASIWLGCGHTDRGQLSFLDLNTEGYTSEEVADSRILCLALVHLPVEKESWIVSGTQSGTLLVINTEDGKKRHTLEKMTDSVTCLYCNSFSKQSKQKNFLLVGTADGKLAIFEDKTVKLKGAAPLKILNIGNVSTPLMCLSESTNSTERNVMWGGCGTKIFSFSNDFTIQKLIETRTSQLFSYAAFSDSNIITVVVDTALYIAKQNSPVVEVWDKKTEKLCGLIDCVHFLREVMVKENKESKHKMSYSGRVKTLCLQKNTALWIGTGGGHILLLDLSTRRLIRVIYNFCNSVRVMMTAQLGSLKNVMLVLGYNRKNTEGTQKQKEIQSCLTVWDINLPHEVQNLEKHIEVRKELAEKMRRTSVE
Assay: LRRK2 Km ATP LanthaScreen Assay
Type: biochemical
Conditions: G2019S LRRK2, 134 μM ATP (Km ATP), mean values
readout.type: LRRK2 pIC50
Simply state the number, no unit and no words.

query: // lookup LRRK2 pIC50 for Cc1cc2cnc(Nc3cnn(C45CC(C4)C5)c3Cl)nc2cc1[C@H]1CCN([C@H]2COC[C@H]2O)C[C@@H]1F (single isomer, unassigned)
result: 8.38

query: Then what about the compound Clc1cc2cnc(Nc3cnn(C4CC4)c3Cl)nc2cc1C1CCN(C2COC(C3CC3)C2)CC1 (single isomer, unassigned) [Ex-4.167] ?
result: 8.14

query: Then what about the compound Cc1c(Nc2ncc3cc(Cl)c(C4CCN(C5COCC5C#N)CC4)cc3n2)cnn1C1CC1 (single isomer, unassigned) [Ex-2.50] ?
result: 9.13

query: Then what about the compound Cc1cc2cnc(Nc3cnn(C45CC(C4)C5)c3Cl)nc2cc1[C@H]1CCN([C@@H]2COC[C@@H]2O)C[C@@H]1F (single isomer, unassigned) ?
result: 8.68

query: Then what about the compound Cc1c(Nc2ncc3cc(Cl)c(C4C[C@H]5C[C@@H]4CN5C4COC4)cc3n2)cnn1C1CC1 (single isomer, unassigned) ?
result: 7.64

query: Then what about the compound CN1CCC(c2cc3nc(Nc4cnn(C(C)(C)CO)c4Cl)ncc3cc2Cl)CC1 ?
result: 8.91

query: Then what about the compound CC(n1ncc(Nc2ncc3cc(Cl)c([C@@H]4CCN(C)C[C@H]4F)cc3n2)c1Cl)C(C)(C)O (single isomer, unassigned) [Ex-4.61] ?
result: 8.80

query: Then what about the compound CC(n1ncc(Nc2ncc3cc(Cl)c([C@@H]4CCN(C)C[C@H]4F)cc3n2)c1Cl)C(C)(C)O (single isomer, unassigned) [Ex-4.60] ?
result: 8.69

query: Then what about the compound CC1(CN2CCC(c3cc4nc(Nc5cnn(C6CC6)c5Cl)ncc4cc3Cl)CC2)COC1 ?
result: 8.11

query: Then what about the compound Cc1c(Nc2ncc3cc(Cl)c(C4CCN(C[C@@H](O)c5ccccc5)CC4)cc3n2)cnn1C1CC1 ?
result: 9.04

query: Then what about the compound CC(n1ncc(Nc2ncc3cc(Cl)c([C@H]4CCN(C)C[C@@H]4F)cc3n2)c1Cl)C(C)(C)O (single isomer, unassigned) [Ex-4.68] ?
result: 8.92

query: Then what about the compound Cn1nc(C(F)(F)F)cc1Nc1ncc2cc(Cl)c(C3CCN([C@]4(C)COC[C@@H]4O)CC3)cc2n1 (single isomer, unassigned) ?
result: 7.39

query: Then what about the compound CCN1CC[C@@H](c2cc3nc(Nc4cnn(CC(C)(C)O)c4Cl)ncc3cc2Cl)[C@H](F)C1 (single isomer, unassigned) ?
result: 8.88

query: Then what about the compound O[C@@H]1COCC1N1CC[C@@H](c2cc3nc(Nc4cnn(C5CC5)c4Cl)ncc3cc2Cl)[C@H](F)C1 (single isomer, unassigned) ?
result: 8.37
